Each recorded value in this set is attributed to ChEMBL document CHEMBL2040765.

Tested on: SW480
ASSAY PROTOCOL: Growth inhibition of human SW480 cells after 72 hrs y MTT assay
Type: functional
EXPERIMENTAL CONTEXT: SW480, 72 h
MEASUREMENT NAME: GI50 (µM)

// below: answered molecules
Input O=C1OC(=O)C2C3CCC(O3)C12 (stereo not drawn) , output reported GI50.
41

Please list GI50 recorded for the molecule "C/C=C/CO[C@H]1OC(=O)[C@H]2[C@@H]1[C@@H]1CC[C@H]2O1"
93

[A] O=C1O[C@H](OCCCOP(=O)(O)O)[C@@H]2[C@H]1[C@H]1CC[C@@H]2O1
[B] CCOP(=O)(OCC)OCCCO[C@H]1OC(=O)[C@H]2[C@@H]1[C@@H]1CC[C@H]2O1
Quick check, higher GI50 between A and B ? Could you answer with the label of the item you picked?
A
(A: 65 µM, B: 9 µM)
